Origin of values: BigSolDB 2.1

# experimental.conditions: in ethanol, 303.15 K
measure: solubility (mole fraction)
# answer = number (no unit)

Record "O=[N+]([O-])c1cccc2c([N+](=O)[O-])cccc12" . Reported solubility (mole fraction): 9.75e-05

----------
# experimental.conditions: in chloroform, 313.15 K
measure: solubility (mole fraction)
# answer = number (no unit)

Record "O=[N+]([O-])c1cccc2c([N+](=O)[O-])cccc12" . Reported solubility (mole fraction): 0.00451

----------
# experimental.conditions: in ethyl acetate, 305.65 K
measure: solubility (mole fraction)
# answer = number (no unit)

Record "O=[N+]([O-])c1cccc2c([N+](=O)[O-])cccc12" . Reported solubility (mole fraction): 0.00218
